Just for reference, patent US20220204603A1 is where these values come from.

TESTED_SYSTEM: T1, mouse Ang2 (construct not stated) (mouse, UniProt O35608 19-496, limits assumed)
T1 construct: also called mAng2
T1 sequence (looked up): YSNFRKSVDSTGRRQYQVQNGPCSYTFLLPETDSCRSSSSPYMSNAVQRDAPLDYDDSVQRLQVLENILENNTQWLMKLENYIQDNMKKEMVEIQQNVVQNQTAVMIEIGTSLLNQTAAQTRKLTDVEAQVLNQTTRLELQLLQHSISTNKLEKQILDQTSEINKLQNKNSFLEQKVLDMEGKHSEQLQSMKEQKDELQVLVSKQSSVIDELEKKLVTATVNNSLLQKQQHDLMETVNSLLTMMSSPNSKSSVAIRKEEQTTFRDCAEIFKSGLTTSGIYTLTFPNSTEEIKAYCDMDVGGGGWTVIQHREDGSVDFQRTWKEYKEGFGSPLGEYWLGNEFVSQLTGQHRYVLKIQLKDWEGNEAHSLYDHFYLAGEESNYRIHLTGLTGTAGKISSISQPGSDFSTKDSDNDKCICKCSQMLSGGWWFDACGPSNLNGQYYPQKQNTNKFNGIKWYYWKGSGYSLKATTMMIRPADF
METHOD_NOTES: SPR Biacore T200, antibody captured on protein A chip, Ang2 as analyte, 1:1 model
Method: To analyze the binding affinity of the selected anti-Ang2 antibodies, affinity analysis for human Ang2 and mouse Ang2 was performed using BIACORE® T200 (GE Healthcare). […] The analysis proceeded at a flow rate of 30 μl/min, the binding and dissociation time of human Ang2 was measured as 300 seconds and 2000 seconds, respectively, and the binding and dissociation time of mouse Ang2 was analyzed as 300 seconds and 1000 seconds, respectively. […]
MEASUREMENT_KIND: kon (M⁻¹ s⁻¹)

No. 4 anti-Ang2 antibody (IgG) (antibody, V domains shown, IgG form: VH cloned into Invivogen pfusess-hchg1, VL into Invivogen pfuse2ss-hclk; also called 2D8) VH: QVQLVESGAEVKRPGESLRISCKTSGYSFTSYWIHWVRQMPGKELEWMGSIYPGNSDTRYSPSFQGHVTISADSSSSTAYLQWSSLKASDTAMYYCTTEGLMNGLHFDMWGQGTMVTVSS VL: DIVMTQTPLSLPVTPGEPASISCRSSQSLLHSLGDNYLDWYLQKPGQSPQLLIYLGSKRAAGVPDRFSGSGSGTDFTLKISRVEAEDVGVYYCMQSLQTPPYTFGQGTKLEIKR : 157000
